Data credit: patent US6458552B1

# MEASURED_ON: T1, TNFα(-4 + 6) FRET peptide Z-LAQAVRSSSR-X (not fully specified)
# T1 chain: LAQAVRSSSR

PROTEIN	Relative proteolytic activity
soluble recombinant human ADAM15, active form (protein) DVVTETKTVELVIVADHSEAQKYRDFQHLLNRTLEVALLLDTFFRPLNVRVALVGLEAWTQRDLVEISPNPAVTLENFLHWRRAHLLPRLPHDSAQLVTGTSFSGPTVGMAIQNSICSPDFSGGVNMDHSTSILGVASSIAHELGHSLGLDHDLPGNSCPCPGPAPAKTCIMEASTDFLPGLNFSNCSRRALEKALLDGMGSCLFERL	*
recombinant ADAM17 (protein) RADPDPMKNTCKLLVVADHRFYRYMGRGEESTTTNYLIELIDRVDDIYRNTSWDNAGFKGYGIQIEQIRILKSPQEVKPGEKHYNMAKSYPNEEKDAWDVKMLLEQFSFDIAEEASKVCLAHLFTYQDFDMGTLGLAYVGSPRANSHGGVCPKAYYSPVGKKNIYLNSGLTSTKNYGKTILTKEADLVTTHELGHNFGAEHDPDGLAECAPNEDQGGKYVMYPIAVSGDHENNKMFSNCSKQSIYKTIESKAQECFQERSNKV	***
soluble recombinant human MDC-L, active form (protein) VQEHEKYIEYYLVLDNGEFKRYNENQDEIRKRVFEMANYVNMLYKKLNTHVALVGMEIWTDKDKIKITPNASFTLENFSKWRGSVLSRRKRHDIAQLITATELAGTTVGLAFMSTMCSPYSVGVVQDHSDNLLRVAGTMAHEMGHNFGMFHDDYSCKCPSTICVMDKALSFYIPTDFSSCSRLSYDKFFEDKLSNCLFNAP	*
soluble recombinant human ADAM8, active (processed) form (protein) RYVELYVVVDNAEFQMLGSEAAVRHRVLEVVNHVDKLYQKLNFRVVLVGLEIWNSQDRFHVSPDPSVTLENLLTWQARQRTRRHLHDNVQLITGVDFTGTTVGFARVSAMCSHSSGAVNQDHSKNPVGVACTMAHEMGHNLGMDHDENVQGCRCQERFEAGRCIMAGSIGSSFPRMFSDCSQAYLESFLERPQSVCLANAP	*
